- experimentalTarget: UniProtKB P49841
- Sequence (P49841 whole entry): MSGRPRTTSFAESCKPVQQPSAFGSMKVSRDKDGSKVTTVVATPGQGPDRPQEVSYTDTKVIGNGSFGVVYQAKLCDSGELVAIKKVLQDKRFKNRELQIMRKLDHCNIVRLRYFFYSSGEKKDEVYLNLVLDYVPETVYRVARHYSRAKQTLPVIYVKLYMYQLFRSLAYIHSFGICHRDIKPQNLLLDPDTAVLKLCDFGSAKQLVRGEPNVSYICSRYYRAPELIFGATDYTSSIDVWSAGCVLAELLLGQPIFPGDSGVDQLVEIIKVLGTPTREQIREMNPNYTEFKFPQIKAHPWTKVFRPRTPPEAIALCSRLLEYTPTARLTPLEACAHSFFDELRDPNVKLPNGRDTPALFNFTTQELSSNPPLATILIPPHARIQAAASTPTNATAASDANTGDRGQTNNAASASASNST
- experimentNotes: hGSK-3β inhibition
- Assay type: biochemical
- conditionDetails: Table 2
reportedEndpoint: IC50 (nM)

(a) CN(C)Cc1cccc(Nc2nccc(-c3ccc(NCCN)c(C#N)c3)n2)c1
(b) O=S(=O)(c1cccc(CSc2nnc(-c3ccc4c(c3)OCO4)o2)c1)N1CCOCC1
(c) CC(=O)Nc1ccc(-c2cnc(N)c(-c3nc4ccc(F)cc4[nH]3)c2)cc1
Ranking by IC50 (descending) is requested for the entries above. Answer format: the labels, ordered as requested.
c, a, b
(c: 1220 nM, a: 240 nM, b: 20 nM)

----------
- Test system: peritoneal murine macrophages (PMM)
- experimentNotes: Cytotoxicity on peritoneal murine macrophages (MTT)
- Format: cell-based, Balb/c mice
- conditionDetails: Mus musculus, Macrophage; Table 1; 48 h
reportedEndpoint: EC50

// sample O=c1sn(-c2cccc3ccccc23)c(=O)n1Cc1ccccc1 [Compound 2, tideglusib] , its EC50 was > 50 µM
